Taken from the supplement of paper PMC10127200.

# System: OVCAR4
# ASSAY_NOTES: Euclidean distance of Cell Painting phenotypic profile (signed KS, 77 features) to DMSO centroid (dimensionless distance); 5 or 10 uM (library dependent); higher = stronger phenotypic change vs DMSO (phenoactivity)
# MEASUREMENT_PARAMETERS: 48 h
Where a name gives a salt, the structure may show the parent alone.
MEASUREMENT_KIND: Euclidean distance
Write the number on its own, no unit after it.

- MOLECULE: "Cc1cc(C)nc(O)n1.O=C(Nc1ccc([N+](=O)[O-])cc1)Nc1ccc([N+](=O)[O-])cc1"
  MEASUREMENT_KIND: "Euclidean distance"
  QUANTITATIVE_RESULT: 1.15
- MOLECULE: "N#Cc1ccc2[nH]cc(CCCCN3CCN(c4ccc5oc(C(N)=O)cc5c4)CC3)c2c1 [Vilazodone HCl]"
  MEASUREMENT_KIND: "Euclidean distance"
  QUANTITATIVE_RESULT: 1.77
- MOLECULE: "CCOC(=O)Nc1ccc(NCc2ccc(F)cc2)nc1N [Flupirtine maleate]"
  MEASUREMENT_KIND: "Euclidean distance"
  QUANTITATIVE_RESULT: 1.37
- MOLECULE: "C/C=C(/C(=C/C)c1ccc(O)cc1)c1ccc(O)cc1"
  MEASUREMENT_KIND: "Euclidean distance"
  QUANTITATIVE_RESULT: 0.784
- MOLECULE: "COC(=O)c1ccc(O)cc1 [Methyl 4-hydroxybenzoate]"
  MEASUREMENT_KIND: "Euclidean distance"
  QUANTITATIVE_RESULT: 1.19
- MOLECULE: "O=C(O)C(=O)O.[NH-][C@@H]1CCCC[C@H]1[NH-].[Pt+2]"
  MEASUREMENT_KIND: "Euclidean distance"
  QUANTITATIVE_RESULT: 3.47

Item: CCCCCCNC(=O)n1cc(F)c(=O)[nH]c1=O | Euclidean distance: 2.82

Lookup result for CNCc1ccc(-c2cc(-c3nc(-c4ccc(S(=O)(=O)C(C)C)cc4)cnc3N)on2)cc1 ; measured Euclidean distance: 4.32

Reported Euclidean distance for CCN(CC)CCOCCOC(=O)C1(c2ccccc2)CCCC1 [Pentoxyverine Citrate] was 0.939
